Hello, the source for this data is ChEMBL document CHEMBL1139129, in case you need it.

target: Amyloid-beta precursor protein (Homo sapiens); assay: Inhibition of amyloid beta 42 fibril formation by thioflavin T assay
Sequence (P05067 whole entry): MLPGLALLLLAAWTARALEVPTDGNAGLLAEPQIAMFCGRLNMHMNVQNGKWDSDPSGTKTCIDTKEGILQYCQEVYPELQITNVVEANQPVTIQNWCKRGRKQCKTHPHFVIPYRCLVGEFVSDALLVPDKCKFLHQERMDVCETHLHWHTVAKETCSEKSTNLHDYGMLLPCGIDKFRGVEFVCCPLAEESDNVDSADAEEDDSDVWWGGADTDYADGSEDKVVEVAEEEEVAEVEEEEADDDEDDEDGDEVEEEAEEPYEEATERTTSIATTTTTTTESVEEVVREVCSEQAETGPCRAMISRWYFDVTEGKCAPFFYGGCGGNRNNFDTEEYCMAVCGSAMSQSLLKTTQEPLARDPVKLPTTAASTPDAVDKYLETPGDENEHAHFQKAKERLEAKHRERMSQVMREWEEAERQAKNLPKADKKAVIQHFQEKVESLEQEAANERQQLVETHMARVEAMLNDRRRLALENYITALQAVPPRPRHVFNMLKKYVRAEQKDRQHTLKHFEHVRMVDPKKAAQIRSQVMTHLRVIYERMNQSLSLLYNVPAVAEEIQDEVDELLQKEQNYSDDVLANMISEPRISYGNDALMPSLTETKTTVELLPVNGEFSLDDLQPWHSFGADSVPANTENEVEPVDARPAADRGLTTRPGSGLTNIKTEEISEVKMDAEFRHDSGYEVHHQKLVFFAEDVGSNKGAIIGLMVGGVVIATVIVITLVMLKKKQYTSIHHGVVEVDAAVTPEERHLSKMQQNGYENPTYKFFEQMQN
MEASURED_QUANTITY: pIC50
# pIC50 is unitless: minus log10 of the molar concentration; print number only

Before answering, review these 2 worked examples.
smiles_str=CNc1cc(/C=C/c2cccc(/C=C/c3ccc(OC)c(NC)c3)n2)ccc1OC measured_quantity=pIC50 quantitative_result=5.96
smiles_str=CN(C)c1ccc(/C=C/c2cccc(/C=C/c3ccc(N(C)C)c(O)c3)c2)cc1O measured_quantity=pIC50 quantitative_result=6.15

Request the reported pIC50 associated with CNc1ccc(/C=C/c2cccc(/C=C/c3ccc(NC)c(OC)c3)n2)cc1OC
6.30

Consider the molecule COc1ccc(/C=C/c2cccc(/C=C/c3ccc(OC)c(N(C)C)c3)n2)cc1N(C)C and give its measured pIC50.
6.05

// returns reported pIC50 for input COc1cc(/C=C/c2cccc(/C=C/c3ccc(O)c(OC)c3)n2)ccc1O
6.10
